# tested_on: human MC1 receptor (Homo sapiens, UniProt Q01726)
# Sequence (Q01726 whole entry): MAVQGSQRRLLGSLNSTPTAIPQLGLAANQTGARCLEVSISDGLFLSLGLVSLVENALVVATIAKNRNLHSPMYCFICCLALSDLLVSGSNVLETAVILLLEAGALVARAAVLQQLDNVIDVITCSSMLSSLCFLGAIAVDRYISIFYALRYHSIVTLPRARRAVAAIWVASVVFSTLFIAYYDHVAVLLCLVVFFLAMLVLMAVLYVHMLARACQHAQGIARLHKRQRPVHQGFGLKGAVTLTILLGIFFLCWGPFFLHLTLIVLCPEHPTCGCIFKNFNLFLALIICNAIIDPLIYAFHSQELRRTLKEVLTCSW
# assay_overview: Human MC1 receptor activation, cAMP production in cells transiently expressing the receptor
# experimental_conditions: FreeStyle 293-F cells expressing human MC1 receptor, α-MSH maximum = 100%
# Method: (1) Construction of Human MC Receptor-Expressing Vector […] Measurement was carried out by using a LANCE (registered trademark) Ultra cAMP Kit (PerkinElmer, Inc.) in accordance with the attached instructions. […] The amount of cAMP was calculated using EnVision (registered trademark) (PerkinElmer Inc.). […]
Counter-ions that a name gives are not always drawn.
assay_readout: EC50 (nM)

Illustrative cases are given below, each with its answer.
QUERY: Which EC50 reading was recorded for the molecule CC(=O)N[C@@H](CC(C)(C)C)C(=O)N1C[C@H](C)N(C(=O)C2CN(C(C)(C)C)CC2c2ccc(F)cc2)C[C@H]1C.Cl (stereo partly shown) ?
RESULT: 1600

QUERY: Also need CC(=O)N[C@@H](CC(C)(C)C)C(=O)N1C[C@H](C)N(C(=O)[C@@H]2CN(C(C)(C)C)C[C@H]2c2ccc(F)cc2F)C[C@H]1C.Cl [Example 4, monohydrochloride] , thanks.
RESULT: 1000

QUERY: Also need CC(=O)N[C@@H](Cc1ccc(Cl)cc1)C(=O)N1CCN(C(=O)[C@@H]2CN(C(C)(C)C)C[C@H]2c2ccc(F)cc2F)[C@@H](C)C1 , thanks.
RESULT: 680

QUERY: Also need CC(=O)N[C@@H](CC(C)C)C(=O)N1CCN(C(=O)[C@@H]2CN(C(C)(C)C)C[C@H]2c2ccc(Cl)cc2F)C[C@H]1C , thanks.
RESULT: 710

QUERY: Also need CC(=O)N[C@@H](CC(C)(C)C)C(=O)N1CCN(C(=O)[C@@H]2CN(C(C)(C)C)C[C@H]2c2ccc(F)cc2F)[C@@H](C)C1.Cl , thanks.
RESULT: 1700

QUERY: Also need CC(=O)N[C@@H](CC(C)(C)C)C(=O)N1CCN(C(=O)C2CN(C(C)(C)C)CC2c2ccc(Cl)cn2)[C@@H](C)C1 (stereo partly shown) , thanks.
RESULT: 870

QUERY: Also need CC(=O)N[C@@H](CC(C)(C)C)C(=O)N1C[C@H](C)N(C(=O)[C@@H]2CN(C3CCOCC3)C[C@H]2c2ccc(Cl)cc2F)C[C@H]1C , thanks.
RESULT: 5700

1 = CC(=O)N[C@@H](CC(C)(C)C)C(=O)N1CCN(C(=O)[C@@H]2CN(C3CCOCC3)C[C@H]2c2ccc(Cl)cc2F)[C@@H](C)C1.Cl [Example 20, monohydrochloride]
2 = CC(=O)N[C@@H](CC(C)(C)C)C(=O)N1CCN(C(=O)[C@@H]2CN(C(C)C)C[C@H]2c2ccc(F)cc2F)[C@@H](C)C1 [Example 24, monohydrochloride]
3 = CC(=O)N[C@H](C(=O)N1CCN(C(=O)[C@@H]2CN(C(C)(C)C)C[C@H]2c2ccc(F)cc2F)[C@@H](C)C1)C1CCCCC1.Cl [Example 6, monohydrochloride]
QUERY: Rank the items in ascending order with respect to EC50. Your task in answering is to list the labels in the requested order.
RESULT: 2, 3, 1

---

# tested_on: human MC4 receptor (Homo sapiens)
# Sequence (P32245 whole entry): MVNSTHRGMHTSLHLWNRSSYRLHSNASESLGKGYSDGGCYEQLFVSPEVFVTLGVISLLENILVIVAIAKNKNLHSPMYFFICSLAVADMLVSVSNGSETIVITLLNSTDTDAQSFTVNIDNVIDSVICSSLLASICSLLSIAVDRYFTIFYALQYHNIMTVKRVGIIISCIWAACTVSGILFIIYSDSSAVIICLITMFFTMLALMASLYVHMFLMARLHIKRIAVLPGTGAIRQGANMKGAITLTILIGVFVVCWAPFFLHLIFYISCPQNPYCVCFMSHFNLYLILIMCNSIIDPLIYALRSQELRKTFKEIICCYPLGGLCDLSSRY
# assay_overview: Human MC4 receptor activation, cAMP production in cells transiently expressing the receptor
# experimental_conditions: FreeStyle 293-F cells expressing human MC4 receptor, α-MSH maximum = 100%
Counter-ions that a name gives are not always drawn.
assay_readout: EC50 (nM)

Illustrative cases are given below, each with its answer.
QUERY: Item: COC[C@H]1CN(C(=O)[C@H](CC(C)C)NC(C)=O)CCN1C(=O)C1CN(C(C)(C)C)CC1c1ccc(Br)cc1F (stereo partly drawn) Test system: human MC4 receptor (Homo sapiens) Read-out: EC50 Value: ?
RESULT: 14

QUERY: Also need CC(=O)N(C)[C@H](C(=O)N1CCN(C(=O)[C@@H]2CN(C(C)(C)C)C[C@H]2c2ccc(F)cc2F)[C@@H](C)C1)C1CCCCC1 , thanks.
RESULT: 12

A = CC(=O)N[C@@H](CC(C)(C)C)C(=O)N1C[C@H](C)N(C(=O)[C@@H]2CN(C(C)(C)C)C[C@H]2c2ccc(F)cc2F)C[C@H]1C.Cl [Example 4, monohydrochloride]
B = CC(=O)N[C@@H](CC(C)(C)C)C(=O)N1C[C@H](C)N(C(=O)C2CN(C(C)(C)C)CC2c2ccc(F)cc2)C[C@H]1C.Cl (stereo partly drawn)
C = CC(=O)N[C@@H](CC(C)(C)C)C(=O)N1CCN(C(=O)[C@@H]2CN(C3CCOCC3)C[C@H]2c2ccc(Cl)cc2F)[C@@H](C)C1.Cl [Example 20, monohydrochloride]
D = CC(C)C[C@H](NS(C)(=O)=O)C(=O)N1CCN(C(=O)[C@@H]2CN(C3CCOCC3)C[C@H]2c2ccc(Cl)cc2F)[C@@H](C)C1 [Example 29, monohydrochloride]
QUERY: List items by EC50 in falling order. Your task in answering is to list the labels in the requested order.
RESULT: D, C, B, A
